This listing pairs compounds with measured EC50.
- Test system: BVDV NADL virus
- EXPERIMENT_NOTES: CPE-based antiviral assay, BVDV NADL in MDBK cells (MTS/PMS)
- PARTICULARS: Bovine viral diarrhea virus isolates and strains, MDBK, 72 h
READOUT_TYPE: EC50 (µM)

>>> print(df.to_string())
                     structure_smiles_string  result_comparator  result_value
 0  Cc1c(-c2ccco2)nc2ccccc2c1C(=O)Nc1nc2c(C)cccc2s1                  =           0.7
 1  Cc1ccc(-c2cc(C(=O)Nc3nc4c(C)cccc4s3)c3ccccc3n2)o1                  =           0.7
 2  Cc1ccc(-c2csc(NC(=O)c3cc(-c4ccccc4)nc4ccccc34)n2)cc1                  =           1.1
 3  O=C(Nc1nc2c(Cl)cccc2s1)c1cc(-c2ccccc2)nc2ccccc12                  =           0.8
 4  COc1ccc(-c2cc(C(=O)Nc3nc4c(C)cccc4s3)c3ccccc3n2)cc1                  =           1.7
 5  Cc1ccc2sc(NC(=O)c3cc(-c4ccccc4)nc4ccccc34)nc2c1C                  <          0.02
 6  O=C(Nc1nc2cc(F)ccc2s1)c1cc(-c2ccco2)nc2ccccc12                  =           100
 7  Cc1cccc2sc(NC(=O)c3cc(-c4ccco4)nc4ccc(CO)cc34)nc12                  =           100
 8  CCOc1ccc2nc(NC(=O)c3cc(-c4ccccc4)nc4ccccc34)sc2c1                  =           3.3
 9  O=C(Nc1nc2c(C(F)(F)F)cccc2s1)c1cc(-c2ccccc2)nc2ccccc12                  =           0.3
10  Cc1cccc2sc(NC(=O)c3cc(-c4ccccc4F)nc4c(F)cccc34)nc12                  =           0.5
11  Cc1ccc(-c2cc(C(=O)Nc3nc4c(C)cccc4s3)c3ccccc3n2)cc1                  =           0.2
12  Cc1cc(NC(=O)c2cc(-c3ccccc3)nc3ccccc23)no1                  =            94
13  O=C(Nc1ccn(-c2ccccc2Cl)n1)c1cc(-c2ccccc2)nc2ccccc12                  =           0.1

All figures here come from paper PMC7144022.
